System: HuCCT1 (Biliary Tract Carcinoma)
Experiment: combination Emax (second highest fraction inhibited in the dose matrix, 72 h); higher = more inhibition; extreme values may be limits of the assay
RESULT TYPE: combination Emax
Answers are plain numbers.

For every item below, please supply its combination Emax.
1. C[C@@H]1COCCN1c1cc(C2([S@](C)(=N)=O)CC2)nc(-c2ccnc3[nH]ccc23)n1 [AZD6738] + Nc1ccn([C@@H]2O[C@H](CO)[C@@H](O)C2(F)F)c(=O)n1 [Gemcitabine] (first compound max 10 µM, 7x7, partner max 0.3 µM)
2. Cn1cnc2c(F)c(Nc3ccc(Br)cc3Cl)c(C(=O)NOCCO)cc21 [Selumetinib] + C=CCn1c(=O)c2cnc(Nc3ccc(N4CCN(C)CC4)cc3)nc2n1-c1cccc(C(C)(C)O)n1 [AZD1775] (first compound max 10 µM, partner max 1 µM)

OUTPUT:
0.779
0.793

For every item below, please supply its combination Emax.
1. NC1(C(=O)N[C@@H](CCO)c2ccc(Cl)cc2)CCN(c2ncnc3[nH]ccc23)CC1 [Capivasertib] + C[C@@H]1COCCN1C2=NC(=NC(=C2)C3(CC3)[S@](=N)(=O)C)C4=C5C=CNC5=NC=C4 [AZD6738] (first compound max 10 µM, 7x7, partner max 10 µM)
2. CN(CCO)CC[C@H](CSc1ccccc1)Nc1ccc(S(=O)(=O)NC(=O)c2ccc(N3CCC([C@@H](O)c4ccccc4-c4ccc(Cl)cc4)CC3)cc2)cc1S(=O)(=O)C(F)(F)F [AZD4320] + C[C@@H](Nc1cc(F)cc(F)c1)c1cc(C(=O)N(C)C)cc2c(=O)cc(N3CCOCC3)oc12 [AZD8186] (first compound max 1 µM, 7x7, partner max 3 µM)
3. Cn1cnc2c(F)c(Nc3ccc(Br)cc3Cl)c(C(=O)NOCCO)cc21 [Selumetinib] + CC(C)n1c(=O)n(C)c2cnc3cc(F)c(-c4ccc(OCCCN5CCCCC5)nc4)cc3c21 [AZD1390] (first compound max 10 µM, 7x7, partner max 0.3 µM)
4. Cc1c2c(nn1C)CSCc1cc(n(C)n1)CSc1cc(c3ccccc3c1)OCCCc1c(C(=O)O)n(C)c3c-2c(Cl)ccc13 [AZD5991] + CS(=O)(=O)CCNCc1ccc(-c2ccc3ncnc(Nc4ccc(OCc5cccc(F)c5)c(Cl)c4)c3c2)o1 [Lapatinib] (first compound max 1 µM, 7x7, partner max 10 µM)
5. Cc1cc2ncnn2cc1Nc1ncc2c(n1)n(C1CCOCC1)c(=O)n2C [AZD7648] + CN(C)CCCOc1ccc(-c2ccc3ncc4c(c3c2)n(C2CCOCC2)c(=O)n4C)cn1 [AZD0156] (first compound max 10 µM, 7x7, partner max 1 µM)

OUTPUT:
1: 0.688; 2: 0.35; 3: 0.517; 4: 0.482; 5: 0.389

* * *

Test system: NCI-H2722 (Mesothelioma)
Experiment: combination Emax (second highest fraction inhibited in the dose matrix, 72 h); higher = more inhibition; extreme values may be limits of the assay
Binary call on combination Emax: Criterion met from 0.3 upward, Criterion not met beneath that.

For orientation, consider the following solved cases.
COMPOUND: CN(CCO)CC[C@H](CSc1ccccc1)Nc1ccc(S(=O)(=O)NC(=O)c2ccc(N3CCC([C@@H](O)c4ccccc4-c4ccc(Cl)cc4)CC3)cc2)cc1S(=O)(=O)C(F)(F)F [AZD4320] + C=CCn1c(=O)c2cnc(Nc3ccc(N4CCN(C)CC4)cc3)nc2n1-c1cccc(C(C)(C)O)n1 [AZD1775] (first compound max 1 µM, partner max 1 µM)
ASSIGNED CATEGORY: Criterion met
--
COMPOUND: C=CCn1c(=O)c2cnc(Nc3ccc(N4CCN(C)CC4)cc3)nc2n1-c1cccc(C(C)(C)O)n1 [AZD1775] + C[C@@H]1COCCN1C2=NC(=NC(=C2)C3(CC3)[S@](=N)(=O)C)C4=C5C=CNC5=NC=C4 [AZD6738] (first compound max 1 µM, partner max 10 µM)
ASSIGNED CATEGORY: Criterion met
--
COMPOUND: CN(C)CCCOc1ccc(-c2ccc3ncc4c(c3c2)n(C2CCOCC2)c(=O)n4C)cn1 [AZD0156] + CCN(CCO)CCCOc1ccc2c(Nc3cc(CC(=O)Nc4cccc(F)c4)[nH]n3)ncnc2c1 [AZD2811] (first compound max 1 µM, 7x7, partner max 1 µM)
ASSIGNED CATEGORY: Criterion not met
--
COMPOUND: Cc1c2c(nn1C)CSCc1cc(n(C)n1)CSc1cc(c3ccccc3c1)OCCCc1c(C(=O)O)n(C)c3c-2c(Cl)ccc13 [AZD5991] + CN(C)CCCOc1ccc(-c2ccc3ncc4c(c3c2)n(C2CCOCC2)c(=O)n4C)cn1 [AZD0156] (first compound max 1 µM, 7x7, partner max 1 µM)
ASSIGNED CATEGORY: Criterion not met
--
COMPOUND: Cc1cc2ncnn2cc1Nc1ncc2c(n1)n(C1CCOCC1)c(=O)n2C [AZD7648] + C[C@@H]1COCCN1C2=NC(=NC(=C2)C3(CC3)[S@](=N)(=O)C)C4=C5C=CNC5=NC=C4 [AZD6738] (first compound max 10 µM, 7x7, partner max 10 µM)
ASSIGNED CATEGORY: Criterion met

Shifting focus to the compound that follows.
INPUT: Evaluate CC1(C)CCC(CN2CCN(c3ccc(C(=O)NS(=O)(=O)c4ccc(NCC5CCOCC5)c([N+](=O)[O-])c4)c(Oc4cnc5[nH]ccc5c4)c3)CC2)=C(c2ccc(Cl)cc2)C1 [Venetoclax] + C[C@@H]1COCCN1C2=NC(=NC(=C2)C3(CC3)[S@](=N)(=O)C)C4=C5C=CNC5=NC=C4 [AZD6738] (first compound max 1 µM, 7x7, partner max 10 µM) : combination Emax at minimum 0.3?
OUTPUT: Criterion met

The origin of these recorded values is the supplement of paper PMC11061612.
